Measured pIC50 accompanies every entry in the list below.
- EXPERIMENT NOTES: Antiproliferative activity against human CRL2813 cells assessed as inhibition of cell proliferation after 5 days by sulforhodamine B assay
- Type: functional, cell-based
- SETTINGS: CRL2813, 120 h
The meaning of pIC50 here: minus log10 of the concentration in molar units.

O=C(O)/C(Cc1ccccc1[N+](=O)[O-])=N/Nc1nc2c(s1)CSc1cc(Cl)c(Cl)cc1-2 : 5.29
O=C(O)/C(Cc1ccccc1[N+](=O)[O-])=N\Nc1nc2c(s1)CCc1c-2ccc(Cl)c1Cl : 4.97
O=C(O)/C(Cc1ccccc1[N+](=O)[O-])=N/Nc1nc2c(s1)COc1cc(Cl)c(Cl)cc1-2 : 5.51
O=C(O)/C(Cc1ccccc1[N+](=O)[O-])=N\Nc1nc2c(s1)COc1cc(Cl)c(Cl)cc1-2 : 5.06

Fill in reported pIC50 for this entry: "O=C(O)/C(Cc1ccccc1[N+](=O)[O-])=N/Nc1nc2c(s1)CSc1c-2ccc(Cl)c1Cl" 5.35

Fill in reported pIC50 for this entry: "O=C(O)/C(Cc1ccccc1[N+](=O)[O-])=N/Nc1nc2c(s1)CCc1cc(Cl)c(Cl)cc1-2" 5.42

Fill in reported pIC50 for this entry: "O=C(O)/C(Cc1ccccc1[N+](=O)[O-])=N\Nc1nc2c(s1)CSc1cc(Cl)c(Cl)cc1-2" 4.98

Fill in reported pIC50 for this entry: "COc1cc2c(cc1OC)-c1nc(N/N=C(\Cc3ccccc3[N+](=O)[O-])C(=O)O)sc1CC2" 4.92

---

Measured IC50 accompanies every entry in the list below.
- EXPERIMENT NOTES: Antiproliferative activity against human CRL2813 cells assessed as inhibition of cell proliferation after 5 days by sulforhodamine B assay
- Format: functional, cell-based
- SETTINGS: CRL2813, 120 h
Report the value in µM with no unit label.

O=C(O)/C(Cc1ccccc1[N+](=O)[O-])=N/Nc1nc2c(s1)CCc1c-2ccc(Cl)c1Cl : 3.6

Fill in reported IC50 for this entry: "O=C(O)/C(Cc1ccccc1[N+](=O)[O-])=N\Nc1nc2c(s1)CCc1cc(Cl)c(Cl)cc1-2" 12

Fill in reported IC50 for this entry: O=C(O)/C(Cc1ccccc1[N+](=O)[O-])=N\Nc1nc2c(s1)C[S+]([O-])c1c-2ccc(Cl)c1Cl (stereo not drawn) 11.4

Fill in reported IC50 for this entry: "O=C(O)/C(Cc1ccccc1[N+](=O)[O-])=N/Nc1nc2c(s1)COc1c-2ccc(Cl)c1Cl" 5.8

Fill in reported IC50 for this entry: O=C(O)/C(Cc1ccccc1[N+](=O)[O-])=N\Nc1nc2c(s1)C[S+]([O-])c1cc(Cl)c(Cl)cc1-2 (stereo not drawn) 4.1

Fill in reported IC50 for this entry: "O=C(O)/C(Cc1ccccc1[N+](=O)[O-])=N\Nc1nc2c(s1)CSc1c-2ccc(Cl)c1Cl" 7

Fill in reported IC50 for this entry: O=C(O)/C(Cc1ccccc1[N+](=O)[O-])=N/Nc1nc2c(s1)C[S+]([O-])c1c-2ccc(Cl)c1Cl (stereo not drawn) 11.2

---

Measured Retention_time accompanies every entry in the list below.
- EXPERIMENT NOTES: Retention time of the compound by RP-HPLC analysis
- Format: physicochemical
Report the value in min with no unit label.

Worked examples, 4 molecules total:
O=C(O)/C(Cc1ccccc1[N+](=O)[O-])=N\Nc1nc2c(s1)C[S+]([O-])c1c-2ccc(Cl)c1Cl (stereo unspecified) : 10.12
O=C(O)/C(Cc1ccccc1[N+](=O)[O-])=N\Nc1nc2c(s1)CCc1cc(Cl)c(Cl)cc1-2 : 10.79
COc1cc2c(cc1OC)-c1nc(N/N=C(/Cc3ccccc3[N+](=O)[O-])C(=O)O)sc1CO2 : 10.9
O=C(O)/C(Cc1ccccc1[N+](=O)[O-])=N/Nc1nc2c(s1)CCc1cc(Cl)c(Cl)cc1-2 : 8.37

Fill in reported Retention_time for this entry: "O=C(O)/C(Cc1ccccc1[N+](=O)[O-])=N/Nc1nc2c(s1)CSc1cc(Cl)c(Cl)cc1-2" 10.33

Fill in reported Retention_time for this entry: "O=C(O)/C(Cc1ccccc1[N+](=O)[O-])=N/Nc1nc2c(s1)CS(=O)(=O)c1c-2ccc(Cl)c1Cl" 12.41
